B1: library; numbered along this chain (parent)
chain: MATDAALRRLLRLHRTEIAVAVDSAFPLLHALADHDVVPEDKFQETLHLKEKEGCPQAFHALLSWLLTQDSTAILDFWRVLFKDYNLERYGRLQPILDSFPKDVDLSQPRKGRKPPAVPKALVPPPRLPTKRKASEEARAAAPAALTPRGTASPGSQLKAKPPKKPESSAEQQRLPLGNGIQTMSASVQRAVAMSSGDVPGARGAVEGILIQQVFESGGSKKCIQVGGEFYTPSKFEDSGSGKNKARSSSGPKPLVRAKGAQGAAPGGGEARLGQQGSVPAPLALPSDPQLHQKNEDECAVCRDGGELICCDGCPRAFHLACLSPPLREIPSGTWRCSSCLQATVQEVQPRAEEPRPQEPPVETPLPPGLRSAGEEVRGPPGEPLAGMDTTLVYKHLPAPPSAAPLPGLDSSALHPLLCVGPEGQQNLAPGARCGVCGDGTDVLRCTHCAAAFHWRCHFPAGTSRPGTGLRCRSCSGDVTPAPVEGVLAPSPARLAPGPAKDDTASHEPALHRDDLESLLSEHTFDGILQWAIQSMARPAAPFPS

variants of: B1; test: AIRE transcriptional activation functional score (insulin promoter-GFP; nonsense median 0, synonymous median 1) (normalised score); higher = higher AIRE activity (more reporter activation); conditions: with insulin promoter-GFP reporter in HEK293
# key: entry, value: AIRE transcriptional activation functional score
Lab note: jot the number down without any unit.

Some variants with known AIRE transcriptional activation functional score results, for comparison:
>>> value("P367C")
1.47
>>> value("L397N")
0.167
>>> value("Q94R")
1.65
>>> value("P116W")
1.13

Problem: AIRE transcriptional activation functional score for A461S ?
Result: 1.22

Problem: Given R79S , state its recorded AIRE transcriptional activation functional score.
Result: 0.372
